This listing pairs variants with measured yeast fitness.
B1: tRNA (parent)
chain: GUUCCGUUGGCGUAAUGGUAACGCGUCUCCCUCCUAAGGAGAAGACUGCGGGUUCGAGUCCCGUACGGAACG

variants of: B1; assay: yeast fitness relative to wild type (ratio to wild type); higher = fitter; tRNA-Arg(CCU), competitive growth, 37 C, YPD
This sample holds only a part of the variants without activity.
reported property: yeast fitness

mutant | cmp | assay result
G6U U35G A69U | = | 1.03
C22A C24G A36C C66U | = | 0.692
C5A C11G G51A C62U | ≤ | 0.5
A43G U47C C62U | = | 0.644
C4G C62U | = | 0.869
C11U C46U U59C | = | 0.767
G6A U26C C29A | ≤ | 0.5
C22U C31A A37C U47C G67A | ≤ | 0.5
A20G C22U A43G | = | 0.624
U8C A15C C34U A57C | ≤ | 0.5
G6A U26G C30U G52A | ≤ | 0.5
U7G A20G C60U C61G | ≤ | 0.5
A15U C55U G56A C66G | = | 0.59
G23A C34U C66U | = | 0.586
G39U A40C C66A A69U | = | 0.642
C60U C62G | = | 0.688
U19A C27G A65U | ≤ | 0.5
A43C C62U | = | 0.93
U7G A20U C46G A57U A69C | = | 0.623
U28A G63C | = | 0.624
G23C C24U A37C G50C | ≤ | 0.5
G9C A14U G48C A69U | ≤ | 0.5
